# tested-target: RpfC sensor peptide (Xanthomonas campestris pv. campestris)
# Sequence (P0C0F7 1-22 limits assumed): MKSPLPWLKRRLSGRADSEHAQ
recorded-endpoint: pKd
By convention, pKd is the negative base-10 log of a molar concentration.

Qu. Consider the compound CC(C)CCCCCCC/C=C\C(=O)O [DSF, cis-11-methyl-dodecenoic acid] and give its measured pKd.
Ans. 6.85

----------
# tested-target: RpfC^FL liposome (Xanthomonas campestris pv. campestris, UniProt P0C0F7)
# Construct: His6 (C); made in house; host or cells: E. coli BL21(DE3), pET30a
# Sequence (P0C0F7 whole entry): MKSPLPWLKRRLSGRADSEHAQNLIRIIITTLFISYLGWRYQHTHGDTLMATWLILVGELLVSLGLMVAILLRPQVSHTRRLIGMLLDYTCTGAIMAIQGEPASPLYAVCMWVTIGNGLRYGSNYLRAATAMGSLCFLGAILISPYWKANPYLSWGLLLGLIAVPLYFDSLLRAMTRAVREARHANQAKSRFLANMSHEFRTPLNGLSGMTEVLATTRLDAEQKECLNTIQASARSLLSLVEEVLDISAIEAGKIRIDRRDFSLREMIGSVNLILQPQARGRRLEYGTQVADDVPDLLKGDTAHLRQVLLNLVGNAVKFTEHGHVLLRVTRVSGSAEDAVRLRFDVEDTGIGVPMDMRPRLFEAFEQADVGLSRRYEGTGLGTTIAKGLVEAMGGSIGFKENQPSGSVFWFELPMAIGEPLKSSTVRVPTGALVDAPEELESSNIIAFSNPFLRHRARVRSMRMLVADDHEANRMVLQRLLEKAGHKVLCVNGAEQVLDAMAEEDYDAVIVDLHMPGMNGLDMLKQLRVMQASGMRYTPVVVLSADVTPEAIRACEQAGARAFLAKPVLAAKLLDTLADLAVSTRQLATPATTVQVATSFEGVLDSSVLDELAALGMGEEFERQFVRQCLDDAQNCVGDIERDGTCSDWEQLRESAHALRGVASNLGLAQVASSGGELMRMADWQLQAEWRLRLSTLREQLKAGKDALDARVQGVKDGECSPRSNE
# assay-notes: Microscale thermophoresis (MST) binding, RpfC^FL liposome
# test-settings: RpfC liposome 0.1 μM, read-out: dissociation constant (Kd)
recorded-endpoint: pKd
By convention, pKd is the negative base-10 log of a molar concentration.

Qu. Consider the compound CC(C)CCCCCCC/C=C\C(=O)O [DSF, cis-11-methyl-dodecenoic acid] and give its measured pKd.
Ans. 6.09
